Data provenance is PubChem BioAssay.

Kindly supply the reported composite z-score values for the records listed here.
# assay-name: binders of probe aHhip on microarray, primary screen, stem cell growth factor project, biochemical, small-molecule microarray, fluorescence 635/667 (AID 1087);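 also: score merges spot fluorescence at 667nm with spot signal to noise ratio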
# conditions: higher = more signal
I only need the number, thanks.

For "O=C(O)[C@@H]1C[C@@H]2C(=O)N3CCC[C@H]3C(=O)N2[C@@H]1c1ccc(O)cc1" the compound record lists composite z-score as 0.35

For "COC(=O)[C@@H]1N=C(c2ccc(OCCCO)cc2)O[C@@H]1c1ccccc1" the compound record lists composite z-score as 0.176

For "COCCOC(=O)N1C(=O)[C@@]2(c3cc(C#CCCO)ccc31)[C@H](c1ccc(OCCO)cc1)N1[C@H](c3ccccc3)[C@H](c3ccccc3)OC(=O)[C@H]1[C@@H]2C(=O)Nc1nc2ccccc2s1" the compound record lists composite z-score as 0.547

For "CC(=O)NCCCC[C@@H]1NC(=O)[C@@H]2C[C@H](C(=O)NCCCCCN)[C@H](c3ccc(O)cc3)N2C1=O" the compound record lists composite z-score as -0.334

For "O=C(NCCN1CCOCC1)[C@@H]1c2ccccc2C(=O)N(C2Cc3ccccc3C2)[C@H]1c1ccc(CO)cc1" the compound record lists composite z-score as -0.173

For CC(C)c1ccc(NN2C(C(O)c3ccc(C#N)cc3)C=CC3C(=O)N(c4ccccc4)C(=O)C32)cc1 (stereo unspecified) the compound record lists composite z-score as -0.0704

For CN(C)c1ccc(C(O)C2C=CC3C(=O)NC(=O)C3N2Nc2ccccn2)cc1 (stereo unspecified) the compound record lists composite z-score as -0.134

For "CCCCCCc1nc(Cc2cc(OC)c(OC)c(OC)c2)cc2c1[Si](C(C)C)(C(C)C)OC2" the compound record lists composite z-score as -0.0427

For "CCOC(=O)C[C@H]1[C@H](OC(=O)c2ccc(C(=O)c3ccccc3)cc2)[C@@H](NC(=O)CC(C)C)c2cc(OCCCO)ccc2N1C(=O)c1ccccc1" the compound record lists composite z-score as 0.0129

For COc1cc2c(cc1O)C(C1CC1)N(Cc1cccc(OC(F)(F)F)c1)CC2 (stereo unspecified) the compound record lists composite z-score as 0.132

For COc1cc2c(cc1O)C(c1cccs1)N(Cc1cc3c(cc1Br)OCO3)CC2 (stereo unspecified) the compound record lists composite z-score as 0.0881

For "CCOC(=O)C[C@H]1[C@H](OC(=O)c2cc3ccccc3oc2=O)[C@@H](NC(=O)CC(C)C)c2cc(OCCCO)ccc2N1C(=O)c1ccc2ccccc2n1" the compound record lists composite z-score as -0.199

For Cc1ccccc1C(O)C1C=CC2C(=O)NC(=O)C2N1Nc1ccccn1 (stereo unspecified) the compound record lists composite z-score as -0.134

For "C=C(COC)/C(=C/C[C@H](OC(=O)c1ccncc1)c1ccccc1OCCO)c1cc(C(=O)OC)ccc1OC" the compound record lists composite z-score as -0.442

For "COC(=O)c1c(CC[C@@H](CO)NC(=O)N[C@@H](C)Cn2cc(-c3ccccn3)nn2)oc(C(C)=O)c1C(=O)OC" the compound record lists composite z-score as -0.0237

For "C#CCN(Cc1ccccc1Br)[C@H](/C=C/c1ccccc1)[C@@H](O)Cc1ccccc1" the compound record lists composite z-score as 0.0373

###

Kindly supply the reported z-score values for the records listed here.
# assay-name: JC-1 mitochondrial signal, unstimulated myeloma cells – cell-based, JC-1 fluorescence, RPMI8226, 24 h, 100 nL compound, profiling panel (AID 1169); also: test concentration not given here
# conditions: JC-1 mitochondrial potential fluorescence, higher = more signal
I only need the number, thanks.

For "COCCOC(=O)N1C(=O)[C@@]2(c3cc(C#CC4(O)CCCCCC4)ccc31)[C@H](C(=O)Nc1nc3ccccc3s1)[C@H]1C(=O)O[C@H](c3ccccc3)[C@H](c3ccccc3)N1[C@@H]2c1ccc(O)cc1" the compound record lists z-score as -0.897

For O=C1OCCC=C[C@H]2OC34C=CCN(Cn5nnc6ccccc65)C(=O)[C@H]3N(CCCO)C(=O)[C@@H]4C12 (stereo partly specified) the compound record lists z-score as 0.057

For "CC(C)NC(=O)[C@@]1(C)c2ccccc2C(=O)N(Cc2ccc(OC(F)(F)F)cc2)[C@H]1c1ccc(CO)cc1" the compound record lists z-score as -0.547

For "C=CCOC(=O)[C@@]1(Cc2ccccc2)C[C@H]2CO[C@H](c3ccc(OC)cc3)N2C1=O" the compound record lists z-score as -0.272

For "CCCC=C(CCC)[C@@H](NC(=O)c1cccs1)c1ccc(C(=O)OC)cc1" the compound record lists z-score as 0.973

For "CCCC[C@@H]1C[C@H]1[C@@H](NC(=O)c1cccs1)c1ccccc1C(F)(F)F" the compound record lists z-score as -0.307

For "CCCN1C(=O)[C@@]2(Cc3ccccc31)N=C(c1ccc(OCCCO)cc1)O[C@H]2c1ccccc1" the compound record lists z-score as -1.16

For "[N-]=[N+]=Nc1ccccc1[C@@H]1OC(c2ccc(OCCCO)cc2)=N[C@]1(Cc1ccccc1)C(=O)N1CCCCC1" the compound record lists z-score as -1.17

For "C=C[C@@H](OC)[C@H](OC(=O)Nc1ccc(OC)cc1)c1ccc(O)c(F)c1" the compound record lists z-score as -0.276

For CC1CC/C=C\[C@H]2OC34C=CCN(c5ccc(Cl)cc5)C(=O)[C@H]3N(C(C)CO)C(=O)[C@]4(C)C2C(=O)O1 (stereo partly specified) the compound record lists z-score as -0.0845

For CC(C)C(CO)N1C(=O)[C@@H]2C3C(=O)OCCC/C=C\[C@H]3OC23C=CCN(Cn2nnc4ccccc42)C(=O)[C@@H]13 (stereo partly specified) the compound record lists z-score as -0.0779

For "CCCC[C@@H](O)C1=C(COc2ccccc2)C[C@H]2C(=O)N(Cc3ccccc3)C(=O)[C@H]2[C@H]1CO" the compound record lists z-score as -1.06

For "CC(C)N1C(=O)C[C@@](C(=O)NC2CC2)(c2ccc([N+](=O)[O-])cc2)[C@H]1c1ccc(CO)cc1" the compound record lists z-score as -0.416

For "COc1ccc(CCNC(=O)[C@@H]2c3ccccc3C(=O)N(C3CCCCC3)[C@H]2c2ccc(CO)cc2)cc1" the compound record lists z-score as -0.726

For "C=CCNC(=O)[C@@H]1[C@H]2C(=O)O[C@H](c3ccccc3)[C@H](c3ccccc3)N2[C@H](c2ccc(O)cc2)[C@@]12C(=O)N(C(=O)OCCOC)c1ccc(C#CC3=CCCCC3)cc12" the compound record lists z-score as -0.825

For "COc1cc2c(cc1O)C=[N+](Cc1sc3ccccc3c1Cl)CC2" the compound record lists z-score as -0.143

###

# assay-name: resazurin metabolic signal in HepG2 cells – cell-based, resazurin fluorescence, 24 h, PK04 Diversity Set, profiling panel (AID 1172); also: test concentration not given here
# conditions: HepG2 viability, higher = more signal
Rule: measured z-score below 0.2 gets yes (1); anything equal to or greater than 0.2 gets no (0).

Prompt line: Determine if "CCC#CCN(Cc1ccccc1Br)[C@H](/C=C/C1CC1)[C@@H](O)Cc1ccccc1" shows z-score strictly lower than 0.2.
Response line: no (0)

Prompt line: Determine if "NC(=O)NCC#Cc1ccc2c(c1)[C@]1(C(=O)N2)[C@H](c2ccccc2OCCO)N2[C@H](c3ccccc3)[C@H](c3ccccc3)OC(=O)[C@H]2[C@@H]1C(=O)O" shows z-score strictly lower than 0.2.
Response line: no (0)

Prompt line: Determine if O=C1C2C=CC(C(O)c3ccco3)N(Nc3ccccc3F)C2C(=O)N1c1ccccc1 (stereo not drawn) shows z-score strictly lower than 0.2.
Response line: yes (1)

Prompt line: Determine if "[N-]=[N+]=Nc1ccccc1C[C@@]1(C(=O)N2CCOCC2)N=C(c2ccc(OCCCO)cc2)O[C@@H]1c1ccccc1" shows z-score strictly lower than 0.2.
Response line: yes (1)

Prompt line: Determine if Cc1ccc(C(C)CC(O)C2C=CC3C(=O)N(c4ccccc4)C(=O)C3N2Nc2ccccc2)o1 (stereo not drawn) shows z-score strictly lower than 0.2.
Response line: yes (1)

Prompt line: Determine if COc1cc2c(cc1O)C(C1CC1)N(C)CC2 (stereo not drawn) shows z-score strictly lower than 0.2.
Response line: yes (1)

Prompt line: Determine if "COCCOC(=O)N1C(=O)[C@@]2(c3cc(C#CCCO)ccc31)[C@H](c1ccc(OCCO)cc1)N1[C@H](c3ccccc3)[C@H](c3ccccc3)OC(=O)[C@H]1[C@@H]2C(=O)Nc1nc2ccccc2s1" shows z-score strictly lower than 0.2.
Response line: no (0)

Prompt line: Determine if "CN(C)C(=O)[C@@]1(Cc2ccccc2)N=C(c2ccc(OCCCO)cc2)O[C@H]1c1ccccc1" shows z-score strictly lower than 0.2.
Response line: no (0)

###

# assay-name: forskolin-driven CRE-LacZ activity in PC12 – cell-based, CRE-LacZ reporter, forskolin-stimulated, primary screen (AID 1146);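 also: PC12 cells with 6xCRE LacZ reporter stimulated by forskolin 10 µM; beta-galactosidase reporter signal reflecting CREB driven transcription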
# conditions: luminescence, 4.5 h, higher = more signal, called active from +8 up or from −8 down
z-score below -0.5 gives Not satisfied; z-score at or above it gives Satisfied.

Prompt line: Identify whether the reported z-score of the following compound is -0.5 or greater: O=C1NC(=O)C2C1C=CC(C(O)c1ccco1)N2Nc1ccc(Cl)cc1Cl (configuration not stated)
Response line: Satisfied

Prompt line: Identify whether the reported z-score of the following compound is -0.5 or greater: "COC(=O)[C@@]1(Cc2ccc(F)cc2)[C@H]2c3cc(C(=O)N(C)C)n(Cc4ccc(OC(F)(F)F)cc4)c3C[C@H]2CN1C(=O)c1ccccc1"
Response line: Satisfied

Prompt line: Identify whether the reported z-score of the following compound is -0.5 or greater: "O=C1O[C@@H](c2ccccc2)[C@@H](c2ccccc2)N2[C@@H](c3ccc(O)cc3)[C@]3(C(=O)Nc4ccc(C#CCCO)cc43)[C@@H](C(=O)N3CCN(c4ncccn4)CC3)[C@H]12"
Response line: Not satisfied

Prompt line: Identify whether the reported z-score of the following compound is -0.5 or greater: "COc1ccc([Si](C)(C)[C@H]2[C@H](CC(=O)N3Cc4ccccc4C[C@H]3CO)O[C@@]3(C(=O)N(Cc4ccc(N5CCOC5=O)cc4)c4ccccc43)[C@@H]2C)cc1"
Response line: Not satisfied

Prompt line: Identify whether the reported z-score of the following compound is -0.5 or greater: "COCCCNC(=O)[C@@H]1c2ccccc2C(=O)N(C(C)C)[C@H]1c1ccc(CO)cc1"
Response line: Satisfied

Prompt line: Identify whether the reported z-score of the following compound is -0.5 or greater: "O=C1N(Cc2ccccc2)c2ccccc2C[C@]12N=C(c1ccc(OCCCO)cc1)O[C@@H]2c1ccccc1"
Response line: Not satisfied
